I'd appreciate it if you could supply Survival rates (%) values for the items below.
Test system: Caco-2 cells
Method: MTT assay, survival rate of Caco-2 cells
Assay type: cell-based, human
Condition Description: 50 μmol/L, 4 h
Answers are plain numbers, in %.

Guide cases for Survival rates (%), answers given:
# Compound, Numeric Value
data = [
    ("COc1cc(O)c2c(=O)cc(-c3ccc(O)c(O)c3)oc2c1[C@@H]1O[C@H](CO)[C@@H](O)[C@H](O)[C@H]1O [Isoswertiajaponin]", 124.6),
    ("COc1cc(O)c2c(=O)cc(-c3ccc(O)cc3)oc2c1[C@@H]1O[C@H](CO)[C@@H](O)[C@H](O)[C@H]1O [Isoswertisin]", 115.3),
    ("O=c1cc(-c2ccc(O)cc2)oc2c([C@@H]3O[C@H](CO)[C@@H](O)[C@H](O)[C@H]3O)c(O)cc(O)c12 [Vitexin]", 101.3),
    ("CCC(C)C(=O)O[C@@H]1[C@@H](O)[C@H](O)[C@@H](CO)O[C@H]1c1c(OC)cc(O)c2c(=O)cc(-c3ccc(O)cc3)oc12 (stereo partly shown) [2”-O-(2”‘-methylbutanoyl)isoswertisin]", 127.6),
]

Dear colleague, could you please provide Survival rates (%) for the compounds listed below?
1. O=c1cc(-c2ccc(O)c(O)c2)oc2c([C@@H]3O[C@H](CO)[C@@H](O)[C@H](O)[C@H]3O[C@@H]3O[C@H](CO)[C@H](O)[C@H](O)[C@H]3O)c(O)cc(O)c12 [2”-O-β-L-galactopyranosylorientin]
2. O=c1cc(-c2ccc(O)c(O)c2)oc2c([C@@H]3O[C@H](CO)[C@@H](O)[C@H](O)[C@H]3O)c(O)cc(O)c12 [Orientin]
3. CC(=O)O[C@H]1C(=O)[C@@]2(C)[C@H]([C@H](OC(=O)c3ccccc3)[C@]3(O)C[C@H](OC(=O)[C@H](O)[C@@H](NC(=O)c4ccccc4)c4ccccc4)C(C)=C1C3(C)C)[C@]1(OC(C)=O)CO[C@@H]1C[C@@H]2O [Paclitaxel, reference compound]

Solution:
104.7
114.3
45.5

====

System: Caco-2 cells
Method: MTT assay, survival rate of Caco-2 cells
Type: cell-based, human
Condition Description: 25 μmol/L, 4 h
Observation Type: Survival rates (%)
One number for each entry, in %.

Guide cases for Survival rates (%), answers given:
# Compound, Survival rates (%)
records = [
    ("CCC(C)C(=O)O[C@@H]1[C@@H](O)[C@H](O)[C@@H](CO)O[C@H]1c1c(OC)cc(O)c2c(=O)cc(-c3ccc(O)cc3)oc12 (stereo partly shown)", 108.8),
    ("O=c1cc(-c2ccc(O)c(O)c2)oc2c([C@@H]3O[C@H](CO)[C@@H](O)[C@H](O)[C@H]3O[C@@H]3O[C@H](CO)[C@H](O)[C@H](O)[C@H]3O)c(O)cc(O)c12", 111.0),
    ("CC(=O)O[C@H]1C(=O)[C@@]2(C)[C@H]([C@H](OC(=O)c3ccccc3)[C@]3(O)C[C@H](OC(=O)[C@H](O)[C@@H](NC(=O)c4ccccc4)c4ccccc4)C(C)=C1C3(C)C)[C@]1(OC(C)=O)CO[C@@H]1C[C@@H]2O [Paclitaxel, reference compound]", 67.3),
    ("COc1cc(O)c2c(=O)cc(-c3ccc(O)cc3)oc2c1[C@@H]1O[C@H](CO)[C@@H](O)[C@H](O)[C@H]1O", 110.8),
]

Dear colleague, could you please provide Survival rates (%) for the compounds listed below?
1. O=c1cc(-c2ccc(O)c(O)c2)oc2c([C@@H]3O[C@H](CO)[C@@H](O)[C@H](O)[C@H]3O)c(O)cc(O)c12
2. O=c1cc(-c2ccc(O)cc2)oc2c([C@@H]3O[C@H](CO)[C@@H](O)[C@H](O)[C@H]3O)c(O)cc(O)c12

Solution:
100.4
104.5

Exercise: Lab request: please report Survival rates (%) under test system Caco-2 cells for COc1cc(O)c2c(=O)cc(-c3ccc(O)c(O)c3)oc2c1[C@@H]1O[C@H](CO)[C@@H](O)[C@H](O)[C@H]1O
Solution: 116.7
